Each recorded value in this set is attributed to ChEMBL document CHEMBL3120060.

tested on: HL-60(TB); assay: Cytotoxicity against human HL-60(TB) cells assessed as cell growth at 10 uM after 48 hrs by SRB assay; assay type: functional; conditions: HL-60, 48 h, read-out: Activity
observable: growth at 10 µM (%)
Please reply with the bare figure in % and do not write the unit itself.

# line_notation, reading_unit, growth at 10 µM
rows = [
    ("Cc1cc(C)n(-c2cn3c(-c4ccc(Cl)cc4)csc3n2)n1", "%", 90.2),
    ("CC1=NN(c2cn3c(-c4ccc(Cl)cc4)csc3n2)C(=O)C1", "%", 92.5),
    ("O=C1CN2C(c3ccc(Cl)cc3)=CSC2=N1", "%", 94.2),
    ("O=C1CC(=O)N(c2cn3c(-c4ccc(Cl)cc4)csc3n2)N1", "%", 88.1),
    ("O=C1CN2C(c3ccccc3)=CSC2=N1", "%", 114),
]

Exam item: Request the reported growth at 10 µM associated with Cc1ccc(-c2csc3nc(N4NC(=O)CC4=O)cn23)cc1
Marked response: 107

Exam item: Next molecule: CC1=NN(c2cn3c(-c4ccc(C)cc4)csc3n2)C(=O)C1
Marked response: 110

Exam item: Next molecule: CC1=NN(c2cn3c(-c4ccccc4)csc3n2)C(=O)C1
Marked response: 89.2

Exam item: Next molecule: Cc1cc(C)n(-c2cn3c(-c4ccccc4)csc3n2)n1
Marked response: 105

Exam item: Next molecule: Cc1ccc(-c2csc3nc(-n4nc(C)cc4C)cn23)cc1
Marked response: 106

Exam item: Next molecule: O=C1CC(=O)N(c2cn3c(-c4ccccc4)csc3n2)N1
Marked response: 120

====

Entries and their growth at 10 µM
tested on: COLO 205; test: Cytotoxicity against human COLO205 cells assessed as cell growth at 10 uM after 48 hrs by SRB assay; type: functional; conditions: COLO 205, 48 h, read-out: Activity
Please reply with the bare figure in % and do not write the unit itself.

# line_notation, measured_target, reading_unit, growth at 10 µM
rows = [
    ("Cc1cc(C)n(-c2cn3c(-c4ccc(Cl)cc4)csc3n2)n1", "COLO 205", "%", 100),
    ("CC1=NN(c2cn3c(-c4ccccc4)csc3n2)C(=O)C1", "COLO 205", "%", 102),
    ("O=C1CC(=O)N(c2cn3c(-c4ccccc4)csc3n2)N1", "COLO 205", "%", 100),
    ("Cc1ccc(-c2csc3nc(N4NC(=O)CC4=O)cn23)cc1", "COLO 205", "%", 107),
    ("CC1=NN(c2cn3c(-c4ccc(Cl)cc4)csc3n2)C(=O)C1", "COLO 205", "%", 103),
    ("O=C1CN2C(c3ccc(Cl)cc3)=CSC2=N1", "COLO 205", "%", 108),
    ("Cc1ccc(-c2csc3nc(-n4nc(C)cc4C)cn23)cc1", "COLO 205", "%", 106),
    ("O=C1CC(=O)N(c2cn3c(-c4ccc(Cl)cc4)csc3n2)N1", "COLO 205", "%", 101),
]

Exam item: Request the reported growth at 10 µM associated with Cc1cc(C)n(-c2cn3c(-c4ccccc4)csc3n2)n1
Marked response: 106

Exam item: Next molecule: O=C1CN2C(c3ccccc3)=CSC2=N1
Marked response: 102

Exam item: Next molecule: CC1=NN(c2cn3c(-c4ccc(C)cc4)csc3n2)C(=O)C1
Marked response: 106
